Recorded values, source patent US20190255073A1.

MIC by entry:
# System: P. aeruginosa ATCC27853
# Assay Overview: MIC determination by microplate dilution, P. aeruginosa human strain
# Type: cell-based, Pseudomonas aeruginosa
# Condition Description: Pseudomonas aeruginosa, ATCC27853, Gram-negative, Mueller-Hinton medium, 24 h, 37° C.
# Method: 1) Preparation of the Preculture A negative control (2 mL of sterile culture medium) […] After 24 hours of incubation, a measurement of the optical density was taken using a spectrophotometer at 600 nm, collecting 100 μL of the bacterial suspension diluted in 900 μL of the sterile culture medium. This test required the use of a 96-well plate and the required volume of the microbial suspension to be seeded was calculated for an OD corresponding to a value equal to 0.01 in each well. […]
Reply with just the number (in µg/mL).

| Compound | System Under Test | Value Units | Observed Value |
| --- | --- | --- | --- |
| CC(C)OC(=O)CC[C@@H](C)[C@H]1CCC2C3CCC4C[C@@H](NCCCN(C)CCCN)CC[C@]4(C)C3C[C@H](O)[C@@]21C (some centres unmarked) | P. aeruginosa ATCC27853 | µg/mL | 56 |
| COC(=O)CC[C@@H](C)[C@H]1CCC2C3C(CC[C@@]21C)[C@@]1(C)CC[C@H](NCCCN(CCCN)CCCN)CC1C[C@@H]3O (some centres unmarked) | P. aeruginosa ATCC27853 | µg/mL | 14 |
| CC(C)OC(=O)CC[C@@H](C)[C@H]1CCC2C3C(CC[C@@]21C)[C@@]1(C)CC[C@H](NCCCN(C)CCCN)CC1C[C@H]3O (some centres unmarked) | P. aeruginosa ATCC27853 | µg/mL | 28 |
| CC(C)OC(=O)CC[C@@H](C)[C@H]1CCC2C3CCC4C[C@@H](NCCNCCNCCNCCNCCN)CC[C@]4(C)C3C[C@H](O)[C@@]21C (some centres unmarked) | P. aeruginosa ATCC27853 | µg/mL | 65 |

Now look at this entry.
**Query** Reported MIC for P. aeruginosa ATCC27853, given COC(=O)CC[C@@H](C)[C@H]1CCC2C3CCC4C[C@@H](NCCNCCNCCNCCNCCN)CC[C@]4(C)C3CC[C@@]21C (some centres unmarked) ?
**Result** 60
